Source of measurements: patent US20220079910A1

experiment: IV docetaxel q3w AUC in mCRPC patients vs other tumors (De Vries Schultink et al.); details: human, in vivo, weekly equivalent, read-out: weekly AUC of IV docetaxel in mCRPC patients (q3w AUC divided by 3)
READOUT_TYPE: AUC

molecule="CC(=O)O[C@@]12CO[C@@H]1C[C@H](O)[C@@]1(C)C(=O)[C@H](O)C3=C(C)[C@@H](OC(=O)[C@H](O)[C@@H](NC(=O)OC(C)(C)C)c4ccccc4)C[C@@](O)([C@@H](OC(=O)c4ccccc4)[C@H]21)C3(C)C [docetaxel]" readout_type=AUC recorded_value="~600 ng·h/mL"
